# Tested on: 2Sb-muMax20 (muMax20 with two 1,3-bis(methyl)benzene Cys staples, A13C/A17C and Q88C/A92C, C-terminal Lys)
# testName: PBM 8-mer E-score (E-score (rank enrichment, -0.5 to 0.5)); higher = stronger preferential binding
Over roughly 33,000 sequences, “E-score (rank enrichment, -0.5 to 0.5)” has its median near -0.0028; the highest 2% begin near 0.23. The sample holds the highest values, similar sequences and a random draw of the others, so the mix is not that of the screen.
measurementType: PBM 8-mer E-score
Please reply with the number alone, leaving off any unit.

Exercise: Value lookup for PBM 8-mer E-score; key = CACCCCCA
Solution: -0.148

Exercise: Let us now turn to AACCCCAC
Solution: 0.177

Exercise: Let us now turn to CGGCGCCG
Solution: -0.0151

Exercise: Let us now turn to AATGAAGA
Solution: 0.0161

Exercise: Let us now turn to CGATATAG
Solution: 0.00229

Exercise: Let us now turn to GCAGAAAA
Solution: 0.0213

Exercise: Let us now turn to AATGAAGT
Solution: 0.238

Exercise: Let us now turn to GACCCCAA
Solution: 0.129

Exercise: Let us now turn to CGATATAA
Solution: 0.262

Exercise: Let us now turn to ATATCATA
Solution: 0.239

Exercise: Let us now turn to CAACACCC
Solution: 0.252

Exercise: Let us now turn to ACATCATC
Solution: 0.0415

Exercise: Let us now turn to CACCCAAA
Solution: 0.211

Exercise: Let us now turn to ACCGGGAT
Solution: -0.253

Exercise: Let us now turn to TAGCAATA
Solution: -0.02

Exercise: Let us now turn to CAGCCATC
Solution: 0.0539

Exercise: Let us now turn to TACTATAA
Solution: 0.239

Exercise: Let us now turn to ATATCATG
Solution: 0.178

Exercise: Let us now turn to AGTGTGCA
Solution: 0.127

Exercise: Let us now turn to AAGCCCCG
Solution: 0.0771

Exercise: Let us now turn to CAACACCG
Solution: -0.202

Exercise: Let us now turn to TTATATAA
Solution: 0.241

====

# Tested on: 2Sb-muMax20 (muMax20 with two 1,3-bis(methyl)benzene Cys staples, A13C/A17C and Q88C/A92C, C-terminal Lys)
# testName: PBM 8-mer E-score (E-score (rank enrichment, -0.5 to 0.5)); higher = stronger preferential binding
The full ranking holds about 33,000 sequences; the median of “E-score (rank enrichment, -0.5 to 0.5)” is about -0.0028, and the highest 2% start at about 0.23. Shown is part of a subset that was picked to be rich in the highest values.
measurementType: PBM 8-mer E-score
Please reply with the number alone, leaving off any unit.

Exercise: Value lookup for PBM 8-mer E-score; key = TGGGTACA
Solution: -0.0341

Exercise: Let us now turn to GCCCAGGA
Solution: -0.14

Exercise: Let us now turn to CACCCATA
Solution: 0.21

Exercise: Let us now turn to AAGTATAA
Solution: 0.196

Exercise: Let us now turn to GGGCAGAC
Solution: -0.0224

Exercise: Let us now turn to CGACGTGC
Solution: -0.0806

Exercise: Let us now turn to CCGATCAG
Solution: -0.247

Exercise: Let us now turn to ACCCCAAT
Solution: 0.344

Exercise: Let us now turn to ATTGTATA
Solution: 0.273

Exercise: Let us now turn to ACCCCATA
Solution: 0.147

Exercise: Let us now turn to AAAATGCA
Solution: 0.127

Exercise: Let us now turn to GACGTATA
Solution: 0.0136

Exercise: Let us now turn to CGAACATC
Solution: 0.0524

Exercise: Let us now turn to ATATCCCG
Solution: 0.0587

Exercise: Let us now turn to TAGTTGAA
Solution: 0.23

Exercise: Let us now turn to CAGTTTGA
Solution: -0.0513

Exercise: Let us now turn to ACAATCGG
Solution: -0.076

Exercise: Let us now turn to CCACGCGA
Solution: 0.0259

Exercise: Let us now turn to CTATCTTC
Solution: 0.0336

Exercise: Let us now turn to TCCTGCGA
Solution: -0.0443

Exercise: Let us now turn to ATTGTATG
Solution: 0.172

Exercise: Let us now turn to ATATCCCC
Solution: 0.339

Exercise: Let us now turn to AATCTAGA
Solution: -0.047

Exercise: Let us now turn to GCCCCATA
Solution: 0.356

Exercise: Let us now turn to GGCCCATA
Solution: -0.0795

Exercise: Let us now turn to ACTATATG
Solution: 0.143

Exercise: Let us now turn to CGTCCGAA
Solution: -0.121

Exercise: Let us now turn to AGCACCTC
Solution: 0.00592

Exercise: Let us now turn to CAATTCCG
Solution: -0.0516

Exercise: Let us now turn to TAACGGAA
Solution: 0.149

Exercise: Let us now turn to CATCGTTC
Solution: -0.12

Exercise: Let us now turn to CTACGTGA
Solution: 0.0198

Exercise: Let us now turn to CTGGTACA
Solution: 0.0235

Exercise: Let us now turn to GGACAGAC
Solution: -0.211

Exercise: Let us now turn to CCCCCATA
Solution: 0.0403

Exercise: Let us now turn to GGGGTTGA
Solution: 0.138

Exercise: Let us now turn to ACATTCCA
Solution: -0.0113

Exercise: Let us now turn to GCTAAAGA
Solution: 0.0447

Exercise: Let us now turn to GCTATATA
Solution: 0.173

Exercise: Let us now turn to CGTGCACG
Solution: 0.357

Exercise: Let us now turn to CAACATGC
Solution: -0.00139

Exercise: Let us now turn to GGAACATA
Solution: 0.0124

Exercise: Let us now turn to CCAAACTA
Solution: 0.234

Exercise: Let us now turn to ATAAACGC
Solution: -0.0771

Exercise: Let us now turn to ACCCCAAA
Solution: 0.201

Exercise: Let us now turn to GTTCGTAA
Solution: -0.00989

Exercise: Let us now turn to ATTGGCTG
Solution: -0.0784

Exercise: Let us now turn to AACGTATA
Solution: 0.251

Exercise: Let us now turn to AAGTTGAA
Solution: 0.0152

Exercise: Let us now turn to CACGTATA
Solution: 0.0602

Exercise: Let us now turn to ACAAACTA
Solution: 0.152

Exercise: Let us now turn to ACCCCATG
Solution: 0.253

Exercise: Let us now turn to GAAAACGA
Solution: -0.0116

Exercise: Let us now turn to AAGTATAC
Solution: 0.236

Exercise: Let us now turn to TAACGTAA
Solution: -0.00578

Exercise: Let us now turn to AAAGGTAG
Solution: 0.176

Exercise: Let us now turn to ATATCTTC
Solution: 0.249

Exercise: Let us now turn to TAATGCGA
Solution: 0.018

Exercise: Let us now turn to ACTACTGA
Solution: -0.123

Exercise: Let us now turn to CCACGCGG
Solution: 0.323

Exercise: Let us now turn to GAAAGGAA
Solution: 0.00148

Exercise: Let us now turn to ACTGGCAG
Solution: -0.182

Exercise: Let us now turn to CAACGTGG
Solution: 0.11

Exercise: Let us now turn to ATTGTACC
Solution: 0.178

Exercise: Let us now turn to ATCCACAA
Solution: 0.0617

Exercise: Let us now turn to CCACGTAG
Solution: -0.0491

Exercise: Let us now turn to ATATCCTA
Solution: 0.0634

Exercise: Let us now turn to AAGAATCG
Solution: 0.202

Exercise: Let us now turn to CAGTTGAA
Solution: 0.0124

Exercise: Let us now turn to CAAAACGA
Solution: 0.103

Exercise: Let us now turn to ATATAGCA
Solution: 0.175

Exercise: Let us now turn to CGAACAAG
Solution: -0.0804

Exercise: Let us now turn to CCTATATC
Solution: 0.0672

Exercise: Let us now turn to ACTATATC
Solution: 0.271

Exercise: Let us now turn to CGACGTGA
Solution: 0.0209

Exercise: Let us now turn to GACCCATA
Solution: 0.239

Exercise: Let us now turn to ACTGAGCC
Solution: -0.209

Exercise: Let us now turn to ACCCCAAC
Solution: 0.217

Exercise: Let us now turn to GCAGGTGA
Solution: -0.000525

Exercise: Let us now turn to AATACGTC
Solution: 0.0547

Exercise: Let us now turn to CTATCCCC
Solution: 0.121

Exercise: Let us now turn to AACCCAAT
Solution: -0.0928

Exercise: Let us now turn to AAAATGCT
Solution: 0.235

Exercise: Let us now turn to ACCAACTA
Solution: 0.0506

Exercise: Let us now turn to ATTATATC
Solution: 0.224

Exercise: Let us now turn to CGCTGTTC
Solution: -0.0947

Exercise: Let us now turn to ACCCCAAG
Solution: 0.271

Exercise: Let us now turn to GCCAACTA
Solution: 0.0147

Exercise: Let us now turn to CTATAGCC
Solution: 0.0346

Exercise: Let us now turn to ACCCCGAT
Solution: 0.136

Exercise: Let us now turn to CATGTAGC
Solution: 0.084

The reported numbers originate from the supplement of paper PMC12636033.
